EXPERIMENT_DESCRIPTION: Evaluation of solubility (DMSO stock into PBS, HPLC-UV)
Assay type: physicochemical
RUN_CONDITIONS: aqueous buffer, kinetic from dmso stock; Dulbecco's phosphate-buffered saline pH 7, room temperature, about 15 minutes shaking; values greater than 200 μM regarded as 200 μM; read-out: Test Example 3 solubility
QUANTITY_MEASURED: solubility (µM)

Some compounds with known solubility results, for comparison:
COMPOUND: C=CCN1CC(=O)N2[C@@H](Cc3c(F)cc(O)cc3F)C(=O)N(Cc3cccc(N4CC(N5CCN(C)C[C@@H]5C)C4)n3)C[C@@H]2N1C(=O)NCc1ccccc1
UNIT: µM
solubility: 195
--
COMPOUND: C=CCN1CC(=O)N2[C@@H](Cc3ccc(O)cc3)C(=O)N(Cc3cccc(N4CC(N5CCN(C(C)C)CC5)C4)n3)C[C@@H]2N1C(=O)NCc1ccccc1
UNIT: µM
solubility: 194

a: C=CCN1CC(=O)N2[C@@H](Cc3ccc(O)cc3)C(=O)N(Cc3ccc(F)c(N4CC(N5CCN(CC)CC5)C4)n3)C[C@@H]2N1C(=O)NCc1ccccc1
b: C[C@H]1C2N(C(=O)CN(C)N2C(=O)NCc2ccccc2)[C@@H](Cc2ccc(O)cc2)C(=O)N1Cc1cccc2cccnc12 (some centres unmarked) [Comparative Example 2, reference compound]
Between the entries labeled a and b , whose measured solubility is lower? Returns: label corresponding to the selected item.
b

----------
EXPERIMENT_DESCRIPTION: PAMPA test (parallel artificial membrane permeability assay)
Format: in vitro ADME
RUN_CONDITIONS: phosphate buffer pH 6.8, about 200 μM, about 5 hours, room temperature, read-out: Test Example 4 membrane permeation coefficient Pe
QUANTITY_MEASURED: Papp (×10⁻⁶ cm/s)

COMPOUND: C=CCN1CC(=O)N2[C@@H](Cc3ccc(O)cc3)C(=O)N(Cc3ccc(F)c(N4CC(N5CCN(C)[C@H](C)C5)C4)n3)C[C@@H]2N1C(=O)NCc1ccccc1
QUANTITY_MEASURED: Papp
NUMERIC_READOUT: 1.91

I: C=CCN1CC(=O)N2[C@@H](Cc3ccc(O)cc3F)C(=O)N(Cc3cccc(N4CC(N5CCN(CC)[C@H](C)C5)C4)n3)C[C@@H]2N1C(=O)NCc1ccccc1
II: C=CCN1CC(=O)N2[C@@H](Cc3ccc(O)cc3F)C(=O)N(Cc3cccc(N4CC(N5CC[C@@H](N(C)C)C5)C4)n3)C[C@@H]2N1C(=O)NCc1ccccc1 [Reference Example 2]
Hi team, can someone confirm which has the larger Papp: I or II ? Thanks. Please identify the chosen entry by its label.
I

----------
EXPERIMENT_DESCRIPTION: Evaluation of solubility (DMSO stock into PBS, HPLC-UV)
Type: physicochemical
RUN_CONDITIONS: aqueous buffer, kinetic from dmso stock; Dulbecco's phosphate-buffered saline pH 7, room temperature, about 15 minutes shaking; values greater than 200 μM regarded as 200 μM; read-out: Test Example 3 solubility
QUANTITY_MEASURED: solubility (µM)

For orientation, consider the following solved cases.
COMPOUND: C=CCN1CC(=O)N2[C@@H](Cc3ccc(O)cc3F)C(=O)N(Cc3cccc(N4CC(N5CCN(C)[C@@H](C)C5)C4)n3)C[C@@H]2N1C(=O)NCc1ccccc1 [Example 4]
UNIT: µM
solubility: 199
//
COMPOUND: C=CCN1CC(=O)N2[C@@H](Cc3ccc(O)cc3)C(=O)N(Cc3cccc(N4CC(N5CCN(C)[C@@H](C)C5)C4)n3)C[C@@H]2N1C(=O)NCc1ccccc1 [Example 27]
UNIT: µM
solubility: 199
//
COMPOUND: C=CCN1CC(=O)N2[C@@H](Cc3ccc(O)cc3F)C(=O)N(Cc3cccc(N4CC(N5CCN(C)C[C@@H]5C)C4)n3)C[C@@H]2N1C(=O)NCc1ccccc1 [Example 15]
UNIT: µM
solubility: 195
//
COMPOUND: C=CCN1CC(=O)N2[C@@H](Cc3ccc(O)cc3F)C(=O)N(Cc3ccc(F)c(N4CC(N5CCC(N(C)C)CC5)C4)n3)C[C@@H]2N1C(=O)NCc1ccccc1 [Reference Example 3]
UNIT: µM
solubility: 199
//
COMPOUND: C=CCN1CC(=O)N2[C@@H](Cc3ccc(O)cc3)C(=O)N(Cc3ccc(F)c(N4CC(N5CCC(N(C)C)CC5)C4)n3)C[C@@H]2N1C(=O)NCc1ccccc1 [Reference Example 1]
UNIT: µM
solubility: 193
//
COMPOUND: C=CCN1CC(=O)N2[C@@H](Cc3ccc(O)cc3F)C(=O)N(Cc3cccc(N4CC(N5CCN(C(C)C)CC5)C4)n3)C[C@@H]2N1C(=O)NCc1ccccc1 [Example 11]
UNIT: µM
solubility: 192
//
COMPOUND: C=CCN1CC(=O)N2[C@@H](Cc3c(F)cc(O)cc3F)C(=O)N(Cc3cccc(N4CC(N5CCN(C)[C@@H](C)C5)C4)n3)C[C@@H]2N1C(=O)NCc1ccccc1 [Example 16]
UNIT: µM
solubility: 197
//
COMPOUND: C=CCN1CC(=O)N2[C@@H](Cc3ccc(O)cc3F)C(=O)N(Cc3ccc(F)c(N4CC(N5CCN(C)CC5)C4)n3)C[C@@H]2N1C(=O)NCc1ccccc1 [Example 10]
UNIT: µM
solubility: 184

I: C=CCN1CC(=O)N2[C@@H](Cc3ccc(O)cc3F)C(=O)N(Cc3ccc(F)c(N4CC(N(C)CCN(C)C)C4)n3)C[C@@H]2N1C(=O)NCc1ccccc1 [Reference Example 6]
II: C=CCN1CC(=O)N2[C@@H](Cc3ccc(O)cc3)C(=O)N(Cc3cccnc3N3CCC(N4CCCC4)CC3)C[C@@H]2N1C(=O)NCc1ccccc1 [Comparative Example 1, reference compound]
Please tell me which of the two, I or II , has the higher reported solubility value. Identify your selection by its label.
I
(I: 190 µM, II: 97 µM)
